# Test system: IGROV1 ovarian
# PROCEDURE_SUMMARY: NCI-60 one-dose screen, 48 h (100 = growth as untreated, 0 = no growth, -100 = all killed)
# CONDITION_NOTES: 10 µM unless noted
This is part of a sample that, as a whole, favours compounds with a hit. Of some 83,000 tested, about 20% had one in any assay.
Doc: threshold 30% (exclusive). Items with growth beneath it return MET; others return NOT MET.

COMPOUND: CCCCCCCCOc1ccc(/C=N/Nc2cc(C)nc3ccc(Cl)cc23)cc1
MEASUREMENT_TARGET: IGROV1 ovarian
ASSIGNED_CATEGORY: MET

Prompt: A record lists CCC1(CC)NC(=O)c2c(c3ccc(Cl)c(Cl)c3n2C)C1C#N (centres undefined) . Is its growth below 30%?
Response: NOT MET

Prompt: Consider the compound "Cc1ccc2[nH]c(=S)n(-c3ccc(S(=O)(=O)Nc4ccc(Cl)nn4)cc3)c(=O)c2c1" . Is its growth strictly less than 30%?
Response: NOT MET

Prompt: Problem: For the compound "FC(F)(F)Oc1cccc(-c2cc(NCCCCCCNc3cc(-c4cccc(OC(F)(F)F)c4)nc4ccc(N5CCCC5)cc34)c3cc(N4CCCC4)ccc3n2)c1" , is growth under 30%?
Response: MET

Prompt: Determine whether this compound shows growth lower than 30% (ties excluded): "O=C(Nc1ccc(F)cc1)c1c(NC(=O)C(F)(F)F)sc2c1CCCCC2"
Response: MET

Prompt: Check if growth falls below 30% for O=C1OC(=O)C2C1CC=CC2c1ccccc1 (centres undefined) .
Response: NOT MET

====

# System: MCF7 breast
# PROCEDURE_SUMMARY: NCI-60 one-dose screen, 48 h
# CONDITION_NOTES: 10 µM unless noted
The panel holds about 83,000 compounds, 20% with a hit somewhere; the sample as a whole holds those more often. Activity calls are given as the source filed them. How the source made its calls: active means growth percent below 10; inactive means the rest.
Response enum: active, inactive

Previously resolved entries follow.
COMPOUND: CC(C)CN(C(=O)c1ccc(Cl)cc1)c1c(N)n(CC(C)C)c(=O)[nH]c1=O
MEASUREMENT_TARGET: MCF7 breast
ASSIGNED_CATEGORY: inactive

COMPOUND: CC(C)(C#N)N1CCN(c2ccccc2Cl)CC1
MEASUREMENT_TARGET: MCF7 breast
ASSIGNED_CATEGORY: inactive

COMPOUND: Clc1cc(Cl)cc(N2N=C(c3cccc(Nc4ccncc4)c3)CC2c2ccc3c(c2)OCO3)c1 (centres undefined)
MEASUREMENT_TARGET: MCF7 breast
ASSIGNED_CATEGORY: active

COMPOUND: COc1cccc(NC(=O)c2cccc(-c3cc(=O)c4c(OC)c(OC)c(OC)cc4o3)c2)c1
MEASUREMENT_TARGET: MCF7 breast
ASSIGNED_CATEGORY: inactive

Prompt: # lookup: test call for CC(O)(CO)c1ccccc1 (centres undefined)
Response: inactive

Prompt: Outcome? Clc1ccc(N2N=C(c3cccc(Nc4ccncc4)c3)CC2c2ccccc2)cc1 (centres undefined)
Response: inactive

Prompt: Which outcome was assigned to "BrC(Br)(Br)c1cnc2ccccc2n1" in this test?
Response: inactive

Prompt: Any idea what this test logged for "COc1ccncc1C#Cc1cncc(C(=O)Nc2ccc(CN3CCN(C)CC3)c(C(F)(F)F)c2)c1" ?
Response: active

Prompt: In this assay, the call recorded for "O=C(NCCc1ccccn1)OCc1nc2nc(Cl)nc(N3CCOCC3)c2[nH]1" was what?
Response: inactive

Prompt: State the result this test recorded for "CC[C@H](C)[C@@H]1NC(=O)[C@H](Cc2ccc(O)cc2)N(C)C(=O)[C@H](Cc2ccccc2)NC(=O)CN(C)C(=O)[C@@H]2CCCN2C(=O)[C@@H](Cc2ccccc2)N(C)C(=O)[C@H](CC(C)C)NC1=O" .
Response: active

Prompt: Given "COc1ccccc1OCC(=O)N1CCCCCC1" , state the outcome it received in this test.
Response: inactive

Prompt: Just curious, what result did "O=C(CCN1CCCC1)Nc1ccc2c(Nc3ccccc3)c3ccccc3nc2c1" get here?
Response: active

====

# Tested on: UACC-257 melanoma
# PROCEDURE_SUMMARY: NCI-60 one-dose screen, 48 h (100 = growth as untreated, 0 = no growth, -100 = all killed)
# CONDITION_NOTES: 10 µM unless noted
# Procedure: Cells are grown in 96 well plates and exposed to the test compound for 48 hours. Compounds are tested at a single concentration, which is 10^-5 M for most compounds. The reported endpoint is percent growth (GI% or GIPRCNT), where numbers from 0 - 100% represent growth inhibition, and numbers from -100% - 0 represent cell death. For example, a value of 40 represents 60% growth inhibition. A value of 0 means no net growth occurred over the course of the experiment. […]
Compounds without any hit were thinned out: in the full panel of roughly 83,000, 20% have a hit.
Param threshold (70%) applies to growth; output MET when value >= threshold, NOT MET when value < threshold.

Worked examples follow.
COMPOUND: CCn1cc(C2NC(=O)c3ccccc3N2)c2cccc(C)c21 (stereo unspecified)
ASSIGNED_CATEGORY: NOT MET
--
COMPOUND: N#C/C(=C\c1ccc(Br)cc1)n1nnc2cccc(F)c21
ASSIGNED_CATEGORY: NOT MET

Prompt: Reported growth at or above 70%? CC(C)Cc1ccc(C(C)C(=O)NCc2c[nH]c3ccc(Cl)cc23)cc1 (stereo unspecified)
Response: MET

Prompt: Exam item: decide whether the reported growth for "O=C(O)/C=C\C(=O)N1C/C(=C\c2ccccc2Cl)C(=O)/C(=C/c2ccccc2Cl)C1" is at least 70%.
Response: NOT MET

Prompt: Answer whether growth of "CC(=O)OCC(=O)[C@@]1(O)CC[C@H]2[C@@H]3CC(=C(Br)Br)C4=CC(=O)CC[C@]4(C)[C@H]3C(=O)C[C@@]21C" is greater than or equal to 70%.
Response: NOT MET

====

# Tested on: U251 CNS
# PROCEDURE_SUMMARY: NCI-60 one-dose screen, 48 h
# CONDITION_NOTES: 10 µM unless noted
The panel holds about 83,000 compounds, 20% with a hit somewhere; the sample as a whole holds those more often. The source made the active and inactive calls. Rule for the calls: active = growth percent below 10; inactive = the rest.
Your reply should match one of these outcome classes. Y = active, N = inactive

// known answers, use as guide
COMPOUND: O=c1nc2n(nc1/C=C/c1ccco1)CC(c1ccc(Cl)cc1)=NN2
MEASUREMENT_TARGET: U251 CNS
ASSIGNED_CATEGORY: N

COMPOUND: O=C(Nc1ccc(F)cc1)c1c(NC(=O)C(F)(F)F)sc2c1CCCCC2
MEASUREMENT_TARGET: U251 CNS
ASSIGNED_CATEGORY: Y

COMPOUND: COc1cc(NCCCN(CC(C)C)CC(C)C)c2ncccc2c1
MEASUREMENT_TARGET: U251 CNS
ASSIGNED_CATEGORY: N

Prompt: Which outcome was entered for the compound CC(=O)N1c2ccccc2NC2=C(C(=O)N(C)C2(C)C)C1C (stereo unspecified) in this test?
Response: N

Prompt: Given COc1ccc(C(O)c2cc3c(N)c(C(=O)Nc4cccc(Br)c4C)sc3nc2C)cc1 (stereo unspecified) , state the outcome it received in this test.
Response: N

Prompt: Please state the recorded outcome for this compound: CC(O)(CO)c1ccccc1 (stereo unspecified)
Response: N

====

# System: COLO 205 colon
# PROCEDURE_SUMMARY: NCI-60 one-dose screen, 48 h
# CONDITION_NOTES: 10 µM unless noted
About 83,000 compounds went through this panel and 20% of them were active in at least one assay; those are over-represented in the sample as a whole. Active and inactive are the calls of the source. Rule for the calls: active = growth percent below 10; inactive = the rest.
Could you please pick one outcome from this set? class 1 (active), class 0 (inactive)

COMPOUND: COc1ccc(C2CC(c3cccc(Nc4ccncc4)c3)=NN2c2ccc(Cl)cc2)cc1 (stereo not given)
ASSIGNED_CATEGORY: class 1

Prompt: Hello, I am checking results. What call was entered for "CCN(CC)S(=O)(=O)c1cccc([N+](=O)[O-])c1" ?
Response: class 0

Prompt: I would be grateful if you could indicate the recorded call for Fc1ccc(C2CC(c3cccc(Nc4ccncc4)c3)=NN2c2ccc(Cl)cc2)cc1 (stereo not given) .
Response: class 1

Prompt: For this compound, state the assay outcome: "CCCCCN1C=C/C(=C\C(=O)N(C)c2cccc3ccccc23)c2ccccc21"
Response: class 0

Prompt: For "Cc1[nH]c(C(=O)Nc2ccccc2OCc2cccc(C(=O)NCCN)c2)c(Cl)c1Cl" , which call appears in the assay record?
Response: class 0

====

# Tested on: DU-145 prostate
# PROCEDURE_SUMMARY: NCI-60 one-dose screen, 48 h
# CONDITION_NOTES: 10 µM unless noted
The panel holds about 83,000 compounds, 20% with a hit somewhere; the sample as a whole holds those more often. Activity calls are given as the source filed them. The calls were made as follows: active = growth percent below 10; inactive = the rest.
Return exactly one item of active, inactive

Known results for molecules:
MOLECULE: COc1cc(/C=C/C(=O)c2c(C)oc3nc[nH]c(=O)c23)ccc1O
ASSIGNED_CATEGORY: inactive
//
MOLECULE: CCCCCN1C=C/C(=C\C(=O)N(C)c2cccc3ccccc23)c2ccccc21
ASSIGNED_CATEGORY: inactive
//
MOLECULE: CC[C@H](C)[C@@H]1NC(=O)[C@H](Cc2ccc(O)cc2)N(C)C(=O)[C@H](Cc2ccccc2)NC(=O)CN(C)C(=O)[C@@H]2CCCN2C(=O)[C@@H](Cc2ccccc2)N(C)C(=O)[C@H](CC(C)C)NC1=O
ASSIGNED_CATEGORY: active
//
MOLECULE: N#Cc1ccc(-c2ccc3c(c2)NC(=O)/C3=C\c2ccc[nH]2)cc1
ASSIGNED_CATEGORY: inactive
//
MOLECULE: CCCCOc1ccc(/C=N/Nc2cc(C)nc3ccc(Cl)cc23)cc1
ASSIGNED_CATEGORY: active
//
MOLECULE: COc1cc(C2CC(c3cccc(Nc4ccncc4)c3)=NN2c2ccccc2)cc(OC)c1OC (stereo not drawn)
ASSIGNED_CATEGORY: inactive

Prompt: Would you mind telling me which call this test gave "[2H]C1([2H])NC([2H])([2H])C([2H])([2H])N(c2ccc(Nc3ncc4cc(C(=O)N(C)C)n(C5CCCC5)c4n3)nc2)C1([2H])[2H]" ?
Response: inactive

Prompt: Identify the outcome logged in this assay for the molecule shown: "Cc1c(C(=O)NO)sc2ncnc(Nc3ccc(NC(=S)Nc4ccccc4)cc3)c12"
Response: inactive
